These data points were gathered from PubChem BioAssay AID2060884.

System: NCI-H929 complex spheroids, viability % test/control
Test: Anticancer human tumor NCI-H929 cell line growth inhibition [RAS]; active = viability on the fitted dose curve at most 10% of control; inactive = the rest;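 note: compound exposure lasted seven days before viability was read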
Conditions: second compound 0.03 µM; first compound 0.0316 µM
Source text: RAS pathway inhibitors in Combinations in Complex Spheroids A high-throughput screen of multi-cell type tumor spheroids was designed to identify active combinations of RAS pathway inhibitors and targeted small molecules. Complex spheroids include a stromal component modeled by human endothelial cells (HUVEC) and fibroblasts modeled by human mesenchymal stem cells (MSCs). […] Compounds. […] If the clinical Cmax for an agent had not been determined, the highest concentration tested was 10 microM. […]
Outcomes: label 1 (active), label 0 (inactive)

| compound | cat |
| --- | --- |
| CC1(O)CCCC1n1c(=O)c(C(F)F)cc2cnc(NC3CCN(S(C)(=O)=O)CC3)nc21 (configuration not stated) + CCn1c(-c2cccnc2C(C)OC)c2c3cc(ccc31)N1CCOC(CC(NC(=O)C(C(C)C)N(C)C(=O)C3(F)CCN(C(=O)C#CC(C)(C)N(C)C)CC3)C(=O)N3CCCC(N3)C(=O)OCC(C)(C)C2)C1 | label 0 |
| C[C@@H](NC(=O)c1ncnc(N)c1Cl)c1ncc(C(=O)Nc2cc(C(F)(F)F)c(Cl)cn2)s1 + CCn1c(-c2cccnc2C(C)OC)c2c3cc(ccc31)N1CCOC(CC(NC(=O)C(C(C)C)N(C)C(=O)C3(F)CCN(C(=O)C#CC(C)(C)N(C)C)CC3)C(=O)N3CCCC(N3)C(=O)OCC(C)(C)C2)C1 | label 0 |
| C=CC(=O)N1CCN(c2nc(OCC3CCCN3C)nc3c(F)c(-c4nc(N)cc(C)c4C(F)(F)F)c(Cl)cc23)C(C)C1 (configuration not stated) + CCn1c(-c2cccnc2C(C)OC)c2c3cc(ccc31)N1CCOC(CC(NC(=O)C(C(C)C)N(C)C(=O)C3(F)CCN(C(=O)C#CC(C)(C)N(C)C)CC3)C(=O)N3CCCC(N3)C(=O)OCC(C)(C)C2)C1 | label 0 |
| CC(Nc1ccc2c(c1)OCCn1cc(N3C(=O)OCC3C(F)F)nc1-2)C(N)=O (configuration not stated) + CCn1c(-c2cccnc2C(C)OC)c2c3cc(ccc31)N1CCOC(CC(NC(=O)C(C(C)C)N(C)C(=O)C3(F)CCN(C(=O)C#CC(C)(C)N(C)C)CC3)C(=O)N3CCCC(N3)C(=O)OCC(C)(C)C2)C1 | label 0 |
| C=CC(=O)Nc1cc(Nc2nccc(-c3cn(C)c4ccccc34)n2)c(OC)cc1N(C)CCN(C)C + CCn1c(-c2cc(N3CCN(C)CC3)cnc2C(C)OC)c2c3cc(ccc31)-c1csc(n1)CC(NC(=O)C1CC1C)C(=O)N1CCCC(N1)C(=O)OCC(C)(C)C2 | label 0 |
| Nc1ccn(C2OC(CO)C(O)C2(F)F)c(=O)n1 (configuration not stated) + CCn1c(-c2cc(N3CCN(C)CC3)cnc2C(C)OC)c2c3cc(ccc31)-c1csc(n1)CC(NC(=O)C1CC1C)C(=O)N1CCCC(N1)C(=O)OCC(C)(C)C2 | label 1 |
| CC(C)n1nc(-c2ccc3oc(N)nc3c2)c2c(N)ncnc21 + CCn1c(-c2cc(N3CCN(C)CC3)cnc2C(C)OC)c2c3cc(ccc31)-c1csc(n1)CC(NC(=O)C1CC1C)C(=O)N1CCCC(N1)C(=O)OCC(C)(C)C2 | label 1 |

====

pIC50: recorded values
Test system: NCI-H929 complex spheroids, viability % test/control
Assay: Anticancer human tumor NCI-H929 cell line growth inhibition [RAS];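 note: compound exposure lasted seven days before viability was read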
Details: curve of first compound; second compound 0.01 µM
Text: RAS pathway inhibitors in Combinations in Complex Spheroids A high-throughput screen of multi-cell type tumor spheroids was designed to identify active combinations of RAS pathway inhibitors and targeted small molecules. Complex spheroids include a stromal component modeled by human endothelial cells (HUVEC) and fibroblasts modeled by human mesenchymal stem cells (MSCs). […] Compounds. […] If the clinical Cmax for an agent had not been determined, the highest concentration tested was 10 microM. […]
pIC50: −log10 of the molar value.

| compound | measured-on | pIC50 |
| --- | --- | --- |
| NC1c2ccccc2OC12CCN(c1cnc3c(N4CCCc5ncccc54)n[nH]c3n1)CC2 (stereo unspecified) + C=CC(=O)N1CCN(c2nc(OCC3CCCN3C)nc3c(F)c(-c4nc(N)cc(C)c4C(F)(F)F)c(Cl)cc23)C(C)C1 | NCI-H929 complex spheroids, viability % test/control | < 5.00 |
| CCN1CCN(Cc2ccc(Nc3ncc(F)c(-c4cc(F)c5nc(C)n(C(C)C)c5c4)n3)nc2)CC1 + C=CC(=O)N1CCN(c2nc(OCC3CCCN3C)nc3c(F)c(-c4nc(N)cc(C)c4C(F)(F)F)c(Cl)cc23)C(C)C1 | NCI-H929 complex spheroids, viability % test/control | < 6.00 |
| O=C(c1ccc(F)c(F)c1Nc1ccc(I)cc1F)N1CC(O)([C@@H]2CCCCN2)C1 + C=CC(=O)N1CCN(c2nc(OCC3CCCN3C)nc3c(F)c(-c4nc(N)cc(C)c4C(F)(F)F)c(Cl)cc23)C(C)C1 | NCI-H929 complex spheroids, viability % test/control | < 6.00 |
| Cc1nc(N2CCC3(CC2)COC(C)C3N)c(CO)nc1Sc1ccnc(N)c1Cl (stereo unspecified) + C=CC(=O)N1CCN(c2nc(OCC3CCCN3C)nc3c(F)c(-c4nc(N)cc(C)c4C(F)(F)F)c(Cl)cc23)C(C)C1 | NCI-H929 complex spheroids, viability % test/control | < 5.00 |
| CC(=O)OC12COC1CC(O)C1(C)C(=O)C(O)C3=C(C)C(OC(=O)C(O)C(NC(=O)OC(C)(C)C)c4ccccc4)CC(O)(C(OC(=O)c4ccccc4)C21)C3(C)C (stereo unspecified) + C=CC(=O)N1CCN(c2nc(OCC3CCCN3C)nc3c(F)c(-c4nc(N)cc(C)c4C(F)(F)F)c(Cl)cc23)C(C)C1 | NCI-H929 complex spheroids, viability % test/control | > 7.50 |
| CC(Nc1ccc2c(c1)OCCn1cc(N3C(=O)OCC3C(F)F)nc1-2)C(N)=O (stereo unspecified) + C=CC(=O)N1CCN(c2nc(OCC3CCCN3C)nc3c(F)c(-c4nc(N)cc(C)c4C(F)(F)F)c(Cl)cc23)C(C)C1 | NCI-H929 complex spheroids, viability % test/control | < 5.00 |

====

Test system: NCI-H929 complex spheroids, viability % test/control
Experiment: Anticancer human tumor NCI-H929 cell line growth inhibition [RAS]; active means viability on the fitted dose curve at most 10% of control; inactive means the rest;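 note: compound exposure lasted seven days before viability was read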
Details: compound 0.316 µM
Possible outcomes: active, inactive

| compound | cat |
| --- | --- |
| O=C(c1ccc(F)c(F)c1Nc1ccc(I)cc1F)N1CC(O)([C@@H]2CCCCN2)C1 | inactive |
| CC(=O)OC12COC1CC(O)C1(C)C(=O)C(O)C3=C(C)C(OC(=O)C(O)C(NC(=O)OC(C)(C)C)c4ccccc4)CC(O)(C(OC(=O)c4ccccc4)C21)C3(C)C (configuration not stated) | active |
| C=CC(=O)Nc1cc(Nc2nccc(-c3cn(C)c4ccccc34)n2)c(OC)cc1N(C)CCN(C)C | inactive |
| C#Cc1c(F)ccc2cc(O)cc(-c3ncc4c(N5CC6CCC(C5)N6)nc(OCC56CCCN5CC(F)C6)nc4c3F)c12 (configuration not stated) | inactive |
| CC1(O)CCCC1n1c(=O)c(C(F)F)cc2cnc(NC3CCN(S(C)(=O)=O)CC3)nc21 (configuration not stated) | active |
| Nc1ccn(C2OC(CO)C(O)C2(F)F)c(=O)n1 (configuration not stated) | active |
| C[C@@H](NC(=O)c1ncnc(N)c1Cl)c1ncc(C(=O)Nc2cc(C(F)(F)F)c(Cl)cn2)s1 | inactive |

====

Tested on: NCI-H929 complex spheroids, viability % test/control
Test: Anticancer human tumor NCI-H929 cell line growth inhibition [RAS];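 note: compound exposure lasted seven days before viability was read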
Conditions: curve of first compound; second compound 0.1 µM
Measured IC50 values are reported for all entries that follow.

| compound | IC50 |
| --- | --- |
| O=C(c1ccc(F)c(F)c1Nc1ccc(I)cc1F)N1CC(O)([C@@H]2CCCCN2)C1 + C#Cc1c(F)ccc2cc(O)cc(-c3ncc4c(N5CC6CCC(C5)N6)nc(OCC56CCCN5CC(F)C6)nc4c3F)c12 | > 1000 nM |
| CC(Nc1ccc2c(c1)OCCn1cc(N3C(=O)OCC3C(F)F)nc1-2)C(N)=O (stereo not drawn) + C=CC(=O)N1CCN(c2nc(OCC3CCCN3C)nc3c(F)c(-c4nc(N)cc(C)c4C(F)(F)F)c(Cl)cc23)C(C)C1 | > 10000 nM |
| O=C(c1ccc(F)c(F)c1Nc1ccc(I)cc1F)N1CC(O)([C@@H]2CCCCN2)C1 + C=CC(=O)N1CCN(c2nc(OCC3CCCN3C)nc3c(F)c(-c4nc(N)cc(C)c4C(F)(F)F)c(Cl)cc23)C(C)C1 | > 1000 nM |

====

System: NCI-H929 complex spheroids, viability % test/control
Test: Anticancer human tumor NCI-H929 cell line growth inhibition [RAS];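 note: compound exposure lasted seven days before viability was read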
Conditions: curve of first compound; second compound 0.03 µM
pIC50: −log10 of the molar value.

| compound | pIC50 |
| --- | --- |
| C=CC(=O)Nc1cc(Nc2nccc(-c3cn(C)c4ccccc34)n2)c(OC)cc1N(C)CCN(C)C + CCn1c(-c2cccnc2C(C)OC)c2c3cc(ccc31)N1CCOC(CC(NC(=O)C(C(C)C)N(C)C(=O)C3(F)CCN(C(=O)C#CC(C)(C)N(C)C)CC3)C(=O)N3CCCC(N3)C(=O)OCC(C)(C)C2)C1 | < 6.00 |
| CC(=O)OC12COC1CC(O)C1(C)C(=O)C(O)C3=C(C)C(OC(=O)C(O)C(NC(=O)OC(C)(C)C)c4ccccc4)CC(O)(C(OC(=O)c4ccccc4)C21)C3(C)C (centres undefined) + CCn1c(-c2cc(N3CCN(C)CC3)cnc2C(C)OC)c2c3cc(ccc31)-c1csc(n1)CC(NC(=O)C1CC1C)C(=O)N1CCCC(N1)C(=O)OCC(C)(C)C2 | > 7.50 |
| Cc1nc(N2CCC3(CC2)COC(C)C3N)c(CO)nc1Sc1ccnc(N)c1Cl (centres undefined) + CCn1c(-c2cccnc2C(C)OC)c2c3cc(ccc31)N1CCOC(CC(NC(=O)C(C(C)C)N(C)C(=O)C3(F)CCN(C(=O)C#CC(C)(C)N(C)C)CC3)C(=O)N3CCCC(N3)C(=O)OCC(C)(C)C2)C1 | < 5.00 |
| Nc1ccn(C2OC(CO)C(O)C2(F)F)c(=O)n1 (centres undefined) + CCn1c(-c2cc(N3CCN(C)CC3)cnc2C(C)OC)c2c3cc(ccc31)-c1csc(n1)CC(NC(=O)C1CC1C)C(=O)N1CCCC(N1)C(=O)OCC(C)(C)C2 | > 8.50 |
